Where do the numbers come from? From PubChem BioAssay (NCI).

Would you kindly list TGI for each of these molecules?
- Test system: SNB-19 CNS
- METHOD_NOTES: NCI tumour cell line growth inhibition, 48 h
Just the number please, in µM, no unit attached.

Form: item C=C1C[C@@]2(C)C(CC[C@]3(C)C2CC=C2C4CC(C)(C)C[C@@H](OC(=O)/C(C)=C\C)[C@]4(C(=O)O)CC[C@]23C)C(C)(C)C1=O (stereo not given in full) ; test system SNB-19 CNS; TGI: 17.4

Form: item O=C(/C=C/c1ccccc1Cl)c1ccc(Cl)cc1Cl ; test system SNB-19 CNS; TGI: 28.8

Form: item C1COCCOCCOCCOCCO1.CC(=O)[CH-]C(C)=O.CC(=O)[CH-]C(C)=O.CC(=O)[CH-]C(C)=O.[V] ; test system SNB-19 CNS; TGI: 32.6

Form: item Fc1ccc2[nH]cc(SSc3c[nH]c4ccc(F)cc34)c2c1 ; test system SNB-19 CNS; TGI: 22.1
